Target: T1, TNFR1 (Homo sapiens, UniProt P19438)
T1 chain: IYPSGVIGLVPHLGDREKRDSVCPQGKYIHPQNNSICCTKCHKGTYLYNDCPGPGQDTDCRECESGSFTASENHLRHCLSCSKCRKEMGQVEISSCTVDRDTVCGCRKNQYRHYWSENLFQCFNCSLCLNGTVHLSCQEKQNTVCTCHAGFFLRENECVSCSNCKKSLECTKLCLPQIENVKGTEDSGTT
Assay: yeast display SC50
Exercise: for every item that follows, state its recorded apparent Kd (screen).
One number for each entry, in nM.

INSERT INTO assay_data (binder, endpoint_unit, assay_value) VALUES
  ('E29D (designed binder) MTLQELLREEALRRAEAEAFRYALELLADKFPEQKEYLLDLAEEIESQIRSLSGVDVEDVRKFLDKEWAWVKELLAEHPAELAEVEAARAARLAELRAEVEAKVAA', 'nM', 0.49),
  ('R21E (designed binder) MTLQELLREEALRRAEAEAFEYALELLAEKFPEQKEYLLDLAEEIESQIRSLSGVDVEDVRKFLDKEWAWVKELLAEHPAELAEVEAARAARLAELRAEVEAKVAA', 'nM', 0.49),
  ('A19Q (designed binder) MTLQELLREEALRRAEAEQFRYALELLAEKFPEQKEYLLDLAEEIESQIRSLSGVDVEDVRKFLDKEWAWVKELLAEHPAELAEVEAARAARLAELRAEVEAKVAA', 'nM', 0.446),
  ('R50H (designed binder) MTLQELLREEALRRAEAEAFRYALELLAEKFPEQKEYLLDLAEEIESQIHSLSGVDVEDVRKFLDKEWAWVKELLAEHPAELAEVEAARAARLAELRAEVEAKVAA', 'nM', 0.539),
  ('A76W (designed binder) MTLQELLREEALRRAEAEAFRYALELLAEKFPEQKEYLLDLAEEIESQIRSLSGVDVEDVRKFLDKEWAWVKELLWEHPAELAEVEAARAARLAELRAEVEAKVAA', 'nM', 0.446),
  ('R97F (designed binder) MTLQELLREEALRRAEAEAFRYALELLAEKFPEQKEYLLDLAEEIESQIRSLSGVDVEDVRKFLDKEWAWVKELLAEHPAELAEVEAARAARLAELFAEVEAKVAA', 'nM', 0.49);

# batch: return apparent Kd (screen) for each of the 7 binders below
1. L96I (designed binder) MTLQELLREEALRRAEAEAFRYALELLAEKFPEQKEYLLDLAEEIESQIRSLSGVDVEDVRKFLDKEWAWVKELLAEHPAELAEVEAARAARLAEIRAEVEAKVAA
2. E18C (designed binder) MTLQELLREEALRRAEACAFRYALELLAEKFPEQKEYLLDLAEEIESQIRSLSGVDVEDVRKFLDKEWAWVKELLAEHPAELAEVEAARAARLAELRAEVEAKVAA
3. L26R (designed binder) MTLQELLREEALRRAEAEAFRYALERLAEKFPEQKEYLLDLAEEIESQIRSLSGVDVEDVRKFLDKEWAWVKELLAEHPAELAEVEAARAARLAELRAEVEAKVAA
4. L6R (designed binder) MTLQERLREEALRRAEAEAFRYALELLAEKFPEQKEYLLDLAEEIESQIRSLSGVDVEDVRKFLDKEWAWVKELLAEHPAELAEVEAARAARLAELRAEVEAKVAA
5. K72M (designed binder) MTLQELLREEALRRAEAEAFRYALELLAEKFPEQKEYLLDLAEEIESQIRSLSGVDVEDVRKFLDKEWAWVMELLAEHPAELAEVEAARAARLAELRAEVEAKVAA
6. A106E (designed binder) MTLQELLREEALRRAEAEAFRYALELLAEKFPEQKEYLLDLAEEIESQIRSLSGVDVEDVRKFLDKEWAWVKELLAEHPAELAEVEAARAARLAELRAEVEAKVAE
7. K35Q (designed binder) MTLQELLREEALRRAEAEAFRYALELLAEKFPEQQEYLLDLAEEIESQIRSLSGVDVEDVRKFLDKEWAWVKELLAEHPAELAEVEAARAARLAELRAEVEAKVAA

(A)
[0.869, 0.79, 0.446, 12.5, 0.49, 0.79, 0.718]

# batch: return apparent Kd (screen) for each of the 3 binders below
1. E25F (designed binder) MTLQELLREEALRRAEAEAFRYALFLLAEKFPEQKEYLLDLAEEIESQIRSLSGVDVEDVRKFLDKEWAWVKELLAEHPAELAEVEAARAARLAELRAEVEAKVAA
2. Y37P (designed binder) MTLQELLREEALRRAEAEAFRYALELLAEKFPEQKEPLLDLAEEIESQIRSLSGVDVEDVRKFLDKEWAWVKELLAEHPAELAEVEAARAARLAELRAEVEAKVAA
3. A42V (designed binder) MTLQELLREEALRRAEAEAFRYALELLAEKFPEQKEYLLDLVEEIESQIRSLSGVDVEDVRKFLDKEWAWVKELLAEHPAELAEVEAARAARLAELRAEVEAKVAA

(A)
1. 0.539
2. 18.3
3. 0.718

From: paper PMC12416549
